target: recombinant soluble tissue factor and recombinant human factor VIIa (TF-VIIa) (Homo sapiens, UniProt P08709); construct: conversion of coagulation factor VII to VIIa by factor Xa; purchased American Diagnostica, Greenwich CT; host or cells: soluble TF made in house in E. coli; assay: TF-VIIa assay (chromogenic substrate hydrolysis); type: biochemical; conditions: reported only as less than or greater than 0.1 uM
Sequence (P08709 213-466 limits assumed): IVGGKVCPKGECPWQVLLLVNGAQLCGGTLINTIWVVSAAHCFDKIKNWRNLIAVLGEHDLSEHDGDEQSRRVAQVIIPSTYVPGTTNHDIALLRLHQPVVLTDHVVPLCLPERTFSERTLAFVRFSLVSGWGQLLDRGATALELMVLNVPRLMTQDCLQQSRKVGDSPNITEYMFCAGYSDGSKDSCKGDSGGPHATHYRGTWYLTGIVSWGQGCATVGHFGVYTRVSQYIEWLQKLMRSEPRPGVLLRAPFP
Sequence (P08709 61-212 limits assumed): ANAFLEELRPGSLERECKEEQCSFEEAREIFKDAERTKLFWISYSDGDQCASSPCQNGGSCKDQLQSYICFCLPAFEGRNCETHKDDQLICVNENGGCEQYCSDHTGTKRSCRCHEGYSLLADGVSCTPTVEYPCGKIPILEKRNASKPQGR
Sequence (P13726 33-251 partner limits assumed): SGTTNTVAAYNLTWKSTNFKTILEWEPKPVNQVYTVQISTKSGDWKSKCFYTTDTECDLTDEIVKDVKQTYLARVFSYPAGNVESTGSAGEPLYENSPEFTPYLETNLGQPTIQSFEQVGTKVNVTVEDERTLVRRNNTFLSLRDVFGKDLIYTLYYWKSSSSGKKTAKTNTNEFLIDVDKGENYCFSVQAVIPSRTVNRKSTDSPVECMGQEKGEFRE
pIC50: −log10 of the molar value.
Would you kindly list pIC50 for each of these compounds?

Worked set:
CC(C)Nc1ncc(-c2cc(N)cc(NC(=O)[C@H]3C[C@@H]3c3ccccc3)c2)n(CC(=O)NCc2ccc(C(=N)N)cc2)c1=O.O=C(O)C(F)(F)F.O=C(O)C(F)(F)F [Example 140]    > 7.00
CC(C)Nc1ncc(-c2cc(N)cc(C(=O)N[C@H](C(=O)O)c3ccccc3)c2)n(CC(=O)NCc2ccc(C(=N)N)cc2)c1=O [Example 84]    > 7.00
CC(C)Nc1ncc(-c2cc(N)cc(NC(=O)c3ccccc3)c2)n(CC(=O)NCc2ccc(C(=N)N)cc2)c1=O [Example 109]    > 7.00
CC(C)Nc1ncc(-c2cc(N)cc(C(F)(F)F)c2)n(CC(=O)NCc2ccc(C(=N)N)c(F)c2F)c1=O [Example 51]    < 7.00
CC(C)Nc1ncc(-c2cc(N)cc(OCCc3ccccc3)c2)n(CC(=O)NCc2ccc(C(=N)N)cc2)c1=O.O=C(O)C(F)(F)F.O=C(O)C(F)(F)F [Example 211]    > 7.00

Record pIC50 per entry; entries follow.
1. CC(C)Nc1ncc(-c2cc(N)cc(NC(=O)c3ccc(N(C)C)cc3)c2)n(CC(=O)NCc2ccc(C(=N)N)cc2)c1=O.O=C(O)C(F)(F)F.O=C(O)C(F)(F)F [Example 142]
2. CC(C)Nc1ncc(-c2cc(N)cc(/C=C/Cc3ccccc3)c2)n(CC(=O)NCc2ccc(C(=N)N)cc2)c1=O [Example 80]
3. N=C(N)c1ccc(CNC(=O)Cn2c(-c3cc(N)cc(O)c3)cnc(NC3CC3)c2=O)cc1.O=C(O)C(F)(F)F.O=C(O)C(F)(F)F [Example 179]
4. CC(C)Nc1nc(Cl)c(-c2cc(N)cc(O)c2)n(CC(=O)NCc2ccc(C(=N)N)cc2)c1=O.O=C(O)C(F)(F)F [Example 178]
5. CCS(=O)(=O)c1cc(N)cc(-c2cnc(NC(C)C)c(=O)n2CC(=O)NCc2ccc(C(=N)N)cc2)c1.O=C(O)C(F)(F)F.O=C(O)C(F)(F)F [Example 232]
6. COC(=O)Cc1cc(N)c(OC)c(-c2cnc(NC(C)C)c(=O)n2CC(=O)NCc2ccc(C(=N)N)cc2)c1 [Example 22]
7. COc1cccc(CNC(=O)c2cc(N)cc(-c3cnc(NC(C)C)c(=O)n3CC(=O)NCc3ccc(C(=N)N)cc3)c2)c1.O=C(O)C(F)(F)F [Example 177]
8. CC(C)Nc1ncc(-c2cc(N)cc(NCC3CCNCC3)c2)n(CC(=O)NCc2ccc(C(=N)N)cc2)c1=O.O=C(O)C(F)(F)F.O=C(O)C(F)(F)F [Example 146]

["> 7.00", "> 7.00", "> 7.00", "> 7.00", "> 7.00", "< 7.00", "> 7.00", "> 7.00"]
